pIC50 listing for selected compounds.
Test system: THP-1
Method summary: Inhibition of IL1-beta secretion in human THP1 cells
Type: functional, cell-based
pIC50: −log10 of the molar value.

Q: Value lookup for pIC50; key = Cc1cccc(C)c1C(=O)NNC(=O)C1(C(=O)N[C@H]2CC(=O)OC2O)CCCCC1 (some centres undefined)
Result: ≤ 5.60

Q: Tell me the measured pIC50 of COc1cccc(OC)c1C(=O)NNC(=O)C1(C(=O)N[C@H]2CC(=O)OC2O)CCCCC1 (some centres undefined) , please.
Result: ≤ 5.60

Q: Look at this compound and give its reported pIC50. Cc1cccc(C(=O)NNC(=O)C2(C(=O)N[C@H]3CC(=O)OC3O)Cc3ccccc3C2)c1 (some centres undefined)
Result: ≤ 5.60

Q: Returns the measured pIC50 for the input compound. Input: COc1cccc(C(=O)NNC(=O)C2(C(=O)N[C@H]3CC(=O)OC3O)CC2)c1 (some centres undefined)
Result: ≤ 5.00
